Please provide measured Papp at 18 hours, 50 µM for the entries that follow.
test: PAMPA (parallel artificial membrane permeability assay); format: in vitro ADME; settings: PAMPA; membrane permeation rate (Pe); 50 mM MOPSO buffer pH 6.5 with 5.0% glycocholic acid, 37° C., 18 hours; read-out: iPAMPA Pe
Starred links: 1 amine or outer side, 2 acyl side, 3 side chain; linkers in the order of their positions; H or OH if unused. Positions of bridges follow the written chain, without caps; N, C: chain ends. Non-standard residues stand in square brackets, D forms with d. Residues, ends and D or L forms follow the SMILES beside them. *: point of attachment. Phe(4-(CH2)5CO) = O=C([C@H](Cc1ccc(CCCCCC(=O)[*:3])cc1)N[*:1])[*:2]; NMeF = CN[C@@H](Cc1ccccc1)C(=O)O; NMeL = CN[C@@H](CC(C)C)C(=O)O; NMeV = CN[C@H](C(=O)O)C(C)C; NMeA = CN[C@@H](C)C(=O)O; Piperidide = C1CCN(*)CC1; Sar = CNCC(=O)O
Answers are plain numbers, in ×10⁻⁶ cm/s.

>  <COMPOUND>
CC(C)C[C@H]1C(=O)N(C)[C@@H](CC(C)C)C(=O)N[C@@H](C)C(=O)N(C)[C@@H](CC(C)C)C(=O)N(C)[C@@H](Cc2ccccc2)C(=O)N(C)[C@@H](Cc2ccccc2)C(=O)N[C@@H]([C@@H](C)O)C(=O)N(C)[C@@H](C)C(=O)N(C)[C@@H](CC(C)C)C(=O)N[C@H](C(=O)N2CCCCC2)Cc2ccc(cc2)CCCCCC(=O)N1C [DP-858] ([NMeL][NMeL]A[NMeL][NMeF][NMeF]T[NMeA][NMeL][Phe(4-(CH2)5CO)]-Piperidide; lactam N-10)

>  <Papp at 18 hours, 50 µM (×10⁻⁶ cm/s)>
1

$$$$

Here's the next entry for you.
Request: Give the measured Papp at 18 hours, 50 µM of CC[C@H](C)[C@@H]1NC(=O)[C@H](C)N(C)C(=O)[C@H]([C@@H](C)O)NC(=O)[C@H](C)N(C)C(=O)[C@H](C(C)C)N(C)C(=O)[C@H](Cc2ccccc2)NC(=O)CN(C)C(=O)C[C@@H](C(=O)N(C)[C@@H](Cc2ccccc2)C(=O)N[C@@H](C)C(=O)N2CCCCC2)NC(=O)[C@H](C)N(C)C(=O)[C@H](CC(C)C)N(C)C1=O [DP-195] ([Sar]F[NMeV][NMeA]T[NMeA]I[NMeL][NMeA]D[NMeF]A-Piperidide; lactam N-10) .
Result: 8

---

Please provide measured microsomal CLint at 1 uM for the entries that follow.
assay: Metabolic stability in human hepatic microsome; assay type: in vitro ADME; conditions: human, microsomes, pH 7.4, CL NADPH(+)
Positions of bridges follow the written chain, without caps; N, C: chain ends. Non-standard residues stand in square brackets, D forms with d. Residues, ends and D or L forms follow the SMILES beside them. *: point of attachment. NMeF = CN[C@@H](Cc1ccccc1)C(=O)O; NMeI = CC[C@H](C)[C@H](NC)C(=O)O; NMeL = CN[C@@H](CC(C)C)C(=O)O; NMeA = CN[C@@H](C)C(=O)O; Piperidide = C1CCN(*)CC1; β3hA = C[C@H](N)CC(=O)O; Sar = CNCC(=O)O; tBu = CC(C)(C)*
Answers are plain numbers, in µL/min/mg.

>  <COMPOUND>
CC[C@H](C)[C@H]1C(=O)N(C)[C@@H](C)C(=O)N(C)[C@@H](CC(C)C)C(=O)N[C@@H](COC(C)(C)C)C(=O)N(C)[C@@H](CC(C)C)C(=O)N[C@@H](C)CC(=O)N(C)[C@@H](C)C(=O)N(C)[C@@H](Cc2ccccc2)C(=O)N[C@@H](CC(C)C)C(=O)N(C)[C@@H](CC(C)C)C(=O)N[C@@H]([C@@H](C)O)C(=O)N[C@@H](Cc2ccccc2)C(=O)N1C [DP-761] (cyclo(F[NMeI][NMeA][NMeL]S(tBu)[NMeL][β3hA][NMeA][NMeF]L[NMeL]T))

>  <MEASURED_RESULT>
118

$$$$
>  <COMPOUND>
CC[C@H](C)[C@H]1C(=O)N[C@H](C(=O)N2CCCCC2)CC(=O)N[C@H](C)C(=O)N(C)[C@@H](Cc2ccccc2)C(=O)N(C)[C@@H](CC(C)C)C(=O)N[C@@H]([C@@H](C)O)C(=O)N(C)CC(=O)N(C)[C@@H](CC(C)C)C(=O)N[C@@H](COC(C)(C)C)C(=O)N1C [DP-77] ([dA][NMeF][NMeL]T[Sar][NMeL]S(tBu)[NMeI]D-Piperidide; lactam N-9)

>  <MEASURED_RESULT>
33

$$$$

Request: Give the measured microsomal CLint at 1 uM of C=C1CCC(=O)N(C)[C@@H](Cc2ccccc2)C(=O)N(C)[C@@H](CC(C)C)C(=O)N[C@@H]([C@@H](C)CC)C(=O)N(C)[C@@H](C)C(=O)N(C)[C@@H](Cc2ccccc2)C(=O)N[C@@H]([C@@H](C)O)C(=O)N(C)[C@@H](C)C(=O)N(C)[C@@H](CC(C)C)C(=O)N[C@H](C(=O)N2CCCCC2)Cc2cccc1c2 [DP-834] .
Result: 501
